Here's a roundup of IC50 values tested on RORc (Homo sapiens, UniProt P51449), taken from various published works.
measurement.label: IC50 (nM)

CC(C)CN(c1cccc(F)c1F)S(=O)(=O)c1ccc(OC2CCN(S(C)(=O)=O)CC2)cc1 : 8
C[C@@H](O)c1coc(-c2cncc([C@@]34CC[C@@H](c5cc(-c6c(F)cccc6F)nnc53)C4(C)C)n2)n1 : 7.4
CC(C)CN(Cc1ccccc1C(F)(F)F)S(=O)(=O)c1ccc(N2CCC(C(N)=O)CC2)cc1 : 24
C[C@H]1CC[C@H](c2ccccc2)S(=O)(=O)N1Cc1ccc([C@]2(C(N)=O)CC[C@@H](n3cnnc3)CC2)cc1F : 22
C[C@H]1CCC(c2ccccc2)S(=O)(=O)N1Cc1ccc(OCc2cncn2C)cc1 (stereo partly drawn) : 295

a. CC1(C)[C@H]2CC[C@]1(c1ccnc(-n3ccnc3)n1)c1nnc(-c3c(F)cccc3F)cc12
b. CCN(C[C@@]12CC[C@@H](c3cc(-c4c(F)cccc4F)nnc31)C2(C)C)c1ccccn1
c. C[C@H]1CC[C@H](c2ccccc2)S(=O)(=O)N1Cc1ccc([C@]2(C#N)C[C@@H](O)C2)cc1F
[Q] Order the items by recorded IC50; the first position goes to the largest value. I'd appreciate it if you listed the labels in the requested order.
[A] c, b, a
